Answer each item with its documented pKi.
Molecular target: T1, human recombinant GIP receptor (human, UniProt P48546 22-466)
T1 construct: whole, on cells; Membranes of CHO-K1 cells expressing the receptor; also called hGIP receptor
T1 sequence (looked up): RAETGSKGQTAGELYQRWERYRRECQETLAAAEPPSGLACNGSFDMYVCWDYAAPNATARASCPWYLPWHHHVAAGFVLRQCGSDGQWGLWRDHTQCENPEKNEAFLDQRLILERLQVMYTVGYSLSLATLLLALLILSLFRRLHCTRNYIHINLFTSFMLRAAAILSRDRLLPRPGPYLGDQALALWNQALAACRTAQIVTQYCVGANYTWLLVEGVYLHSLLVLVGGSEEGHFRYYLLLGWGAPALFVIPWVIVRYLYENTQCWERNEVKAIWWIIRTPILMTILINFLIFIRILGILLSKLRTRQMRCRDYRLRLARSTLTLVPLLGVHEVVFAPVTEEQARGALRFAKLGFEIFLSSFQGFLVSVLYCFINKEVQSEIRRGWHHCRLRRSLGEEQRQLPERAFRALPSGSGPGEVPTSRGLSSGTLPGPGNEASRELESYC
Assay: [125I]GIP competition, membranes of CHO-K1 cells expressing human GIP receptor
Where no end group is shown, it is not given here. [ ]: non-standard residue; d: D form. Ac6c = NC1(C(=O)O)CCCCC1; Aib = CC(C)(N)C(=O)O
Give bare numbers, as −log10 of the molar value.

Give pKi for each listed item.
1. YXEGTFISDYSIXXDKIHQQDFVNWLLAQKGKKNDWKHNITQ (Aib at 2 and 13; Nle at 14; C-terminal free acid) [(Aib^2, 13, Nle^14)hGIP(1-42)-OH]
2. YXEGTFISDYXIAXDKIHQQDFVNWLLAQKGKKNDWKHNITQ (Aib at 2 and 11; A6c at 14; C-terminal free acid) [(Aib^2, 11, A6c^14)hGIP(1-42)-OH]
3. Y[Aib]EG[Aib]FISDYSIAMDKIHQQDFVNWLLAQKGKKNDWKHNITQ-OH [(Aib^2, 5)hGIP(1-42)-OH]
4. YXEGTFISDYSIAXDKIHQQDFVNWLLAQKGKKNDWKHNITQ (Aib at 2; A6c at 14; C-terminal free acid) [(Aib^2, A6c^14)hGIP(1-42)-OH]

## Result
[10.30, 9.14, 8.39, 10.15]

Give pKi for each listed item.
1. Y[Aib]EGTF[Ac6c]SDYSIAMDKIHQQDFVNWLLAQKGKKNDWKHNITQQ-OH [(Aib^2, A6c^7, Gln^43)hGIP(1-43)-OH]
2. YGEGTFISDYXIAMDKIHQQDFVNWLLAQKGKKNDWKHNITQH (A5c at 11; C-terminal free acid) [(Gly^2, A5c^11, His^43)hGIP(1-43)-OH]
3. YXEGTFXSDYSIAXDKIHQQDFVNWLLAQK (A5c at 2 and 7; Nle at 14; C-terminal amide) [(A5c^2, 7, Nle^14)hGIP(1-30)-NH2]
4. YXEGTFXSDYSIAXDKIHQQDFVNWLLAQKGKKNDWKHNITQ (Aib at 2; A5c at 7 and 14; C-terminal free acid) [(Aib^2, A5c^7, 14)hGIP(1-42)-OH]
5. YXEGTFISXYSIAMDKIHQQDFVNWLLAQKGKKNDWKHNITQ (Aib at 2 and 9; C-terminal free acid) [(Aib^2, 9)hGIP(1-42)-OH]
6. YXEGTFXSDYSIAMDKIHQQDFVNWLLAQK (Aib at 2; A5c at 7; C-terminal amide) [(Aib^2, A5c^7)hGIP(1-30)-NH2]
7. YXEGTFISDYXIAXDKIHQQDFVNWLLAQK (Aib at 2 and 11; A6c at 14; C-terminal amide) [(Aib^2, 11, A6c^14)hGIP(1-30)-NH2]
8. YXEGTFISDYSIXXDKIHQQDFVNWLLAQK (Aib at 2 and 13; Nle at 14; C-terminal amide) [(Aib^2, 13, Nle^14)hGIP(1-30)-NH2]

## Result
1. 9.03
2. 9.01
3. 7.59
4. 9.66
5. 8.58
6. 9.57
7. 9.14
8. 10.05
